# test_target: mu opioid receptor
# test_details: opioid receptor binding, mu ([3H]naloxone)
# Parameters: species or system guinea pig (method, b1124); rat (Table 4 title)
Structures can show the parent of a compound that is named as a salt.
Below is a list of entries, each paired with its recorded pKi value.
Would you please state pKi, meaning minus log10 of the concentration in mol/L, as a bare number?

[ask] Find pKi (mu opioid receptor) for the entry CN1CCCC[C@H]1[C@H](c1ccccc1)N(C)C(=O)Cc1cccc2occc12
[reply] 6.60

[ask] Value wanted: pKi (mu opioid receptor) of entry CN1CCCC[C@H]1[C@H](c1ccccc1)N(C)C(=O)Cc1ccc(Cl)c(Cl)c1 [Example 106, hydrochloride]
[reply] 6.38

[ask] Observed pKi on mu opioid receptor for CN1CCCCC1C(c1cccc(O)c1)N(C)C(=O)Cc1ccc(Cl)c(Cl)c1 (centres unmarked) [Example 6, hydrobromide] , please.
[reply] 6.36

* * *

# test_target: mu opioid receptor
# test_details: opioid receptor binding, mu ([3H]naloxone)
# Design: species or system guinea pig (method, b1124); rat (Table 4 title)
Where a name gives a salt, the structure may show the parent alone.
reported_endpoint: Ki (nM)
Report as a plain number; the unit nM is understood.

Use these answered entries as a reference point.
[ask] Fill blank: measured Ki of the compound CN1CCCCC1C(c1ccccc1)N(C)C(=O)Cc1ccc(Cl)c(Cl)c1 (stereo not drawn) [Example 9] is ____.
[reply] 322

[ask] Name the recorded Ki for COc1cccc(C(C2CCCCN2C)N(C)C(=O)Cc2ccc(Cl)c(Cl)c2)c1 (stereo not drawn) [Example 5, hydrochloride] .
[reply] 3470

# input for lookup
[ask] Param item = COc1cccc([C@@H]([C@@H]2CCCCN2C)N(C)C(=O)COc2ccc(Cl)c(Cl)c2)c1 [Example 140] ; retrieve measured Ki.
[reply] 104

* * *

# test_target: mu opioid receptor
# test_details: opioid receptor binding, mu ([3H]naloxone)
# Design: species or system guinea pig (method, b1124); rat (Table 4 title)
# measurement_conditions: 0.5 nM [3H]naloxone; brain membranes; apparent Ki
Where a name gives a salt, the structure may show the parent alone.
reported_endpoint: pKi
The scale used: pKi is minus the common logarithm of the concentration in molar units.

The following compounds have reported results that may help.
[ask] Can you look up the measured pKi of CN1CCCCC1C(Cc1ccccc1)N(C)C(=O)Cc1ccc(Cl)c(Cl)c1 (stereo not shown) for me?
[reply] 5.59

[ask] Dear colleague, I am looking for the recorded pKi of the following compound: CN(C(=O)Cc1ccc(Cl)c(Cl)c1)C(c1ccccc1)C1CCCCN1CC1CC1 (stereo not shown) [Example 3, hydrochloride]
[reply] 6.02

[ask] // lookup pKi for COc1ccc(C(C2CCCCN2C)N(C)C(=O)Cc2ccc(Cl)c(Cl)c2)cc1 (stereo not shown) [Example 7, hydrochloride]
[reply] 5.25

Okay, now this compound:
[ask] I have this compound here, CN1CCCC[C@H]1[C@H](c1cccc(O)c1)N(C)C(=O)COc1ccc(Cl)c(Cl)c1 , and I need its recorded pKi.
[reply] 7.57

* * *

This section presents molecules with their documented Ki values.
# test_target: mu opioid receptor
# test_details: opioid receptor binding, mu ([3H]naloxone)
# Design: species or system guinea pig (method, b1124); rat (Table 4 title)
Provide only the numeric value, understood in µM.

// known answers, use as guide
[ask] GET /values?readout=Ki&item= CN1CCCC[C@H]1[C@H](c1ccc(F)cc1)N(C)C(=O)Cc1ccc(Cl)c(Cl)c1
[reply] 1.06

[ask] Need Ki, item CN1CCCC[C@H]1[C@@H](c1ccccc1)N(C)C(=O)Cc1ccc(Cl)c(Cl)c1
[reply] 3.86

[ask] Need Ki of CN1CCCC[C@H]1[C@H](c1cccc(O)c1)N(C)C(=O)Cc1ccc(Cl)c(Cl)c1 , thanks.
[reply] 0.209

Here is the next item to consider.
[ask] Item CCN(C(=O)Cc1ccc(Cl)c(Cl)c1)C(c1ccccc1)C1CCCCN1C (centres unmarked) [Example 12] has what recorded Ki?
[reply] 3.33
